# System: cancer cell lines
# ASSAY_OVERVIEW: Cancer cell proliferation activity (CellTiterGlo, 72 h)
# Assay type: cell-based
# STUDY_CONDITIONS: Homo sapiens, SK-N-SH, 72 h, SKNSH (brain), 72 h; read-out: IC50 cell proliferation
pIC50: −log10 of the molar value.

[
  {
    "SMILES_INPUT": "Nc1nc(=O)n([C@H]2C[C@H](O)[C@](CO)(CF)O2)cc1F",
    "pIC50": "< 4.30"
  },
  {
    "SMILES_INPUT": "Nc1ccn([C@H]2C[C@H](O)[C@](CO)(CF)O2)c(=O)n1",
    "pIC50": "< 4.30"
  },
  {
    "SMILES_INPUT": "C[C@]1(CO)O[C@@H](n2ccc(N)nc2=O)C(F)(F)[C@@H]1O",
    "pIC50": "< 4.30"
  }
]
